# measured-on: human recombinant serotonin (5-Hydroxytryptamine) 5-HT2C receptor (Homo sapiens, UniProt P28335)
# Construct: expressed in transfected cells; host or cells: CHO-K1 cells
# Sequence (P28335 33-458): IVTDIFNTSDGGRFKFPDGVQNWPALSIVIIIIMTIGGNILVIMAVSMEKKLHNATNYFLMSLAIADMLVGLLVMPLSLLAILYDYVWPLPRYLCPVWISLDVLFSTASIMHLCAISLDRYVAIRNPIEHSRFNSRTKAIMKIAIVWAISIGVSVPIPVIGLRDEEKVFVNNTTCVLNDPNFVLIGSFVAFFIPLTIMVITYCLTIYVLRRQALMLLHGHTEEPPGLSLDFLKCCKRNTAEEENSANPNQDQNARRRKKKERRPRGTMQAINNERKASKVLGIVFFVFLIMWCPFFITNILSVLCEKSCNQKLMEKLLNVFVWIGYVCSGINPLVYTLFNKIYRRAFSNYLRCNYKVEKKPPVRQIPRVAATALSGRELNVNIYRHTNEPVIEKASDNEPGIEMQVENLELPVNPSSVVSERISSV
# protocol-summary: Serotonin 5-HT2C radioligand binding ([3H]Mesulergine)
# assay-conditions: compound at 1 μM; read-out: Serotonin (1 μM) 5-HT2C, percent inhibition of specific binding
Please provide measured inhibition at 1 µM for the entries that follow.
Number in %, nothing else.

Task item: Suppose we examine the compound Cc1ccc2c(c1)c1c(n2CC(O)c2ccc(C)nc2)CCN(C)CC1 (stereo not drawn) [Compound No. 23] ; what inhibition at 1 µM value has been reported?
Reply: 37

Task item: Can you check Cc1ccc2c(c1)c1c(n2CCc2ccncc2)CCN(C)CC1 [Compound No. 6] next?
Reply: 92

Task item: // next record C/C(=C\n1c2c(c3cc(C)ccc31)CCN(C)CC2)c1cccc(F)c1 [Compound No. 252]
Reply: 87

Task item: And the next one, Cc1ccc2c(c1)c1c(n2CC(=O)N2CCC(C)CC2)CCN(C)CC1 [Compound No. 225] ?
Reply: 44

Task item: And for Cc1ccc(CCn2c3c(c4cc(Cl)ccc42)CCN(C)CC3)cc1 [Compound No. 46] ?
Reply: 98

Task item: Cc1ccc2c(c1)c1c(n2CCc2ccccc2)CCN(C)CC1 [Compound No. 62] , same question.
Reply: 101

Task item: Also, C/C(=C/n1c2c(c3cc(C)ccc31)CCN(C)CC2)c1cccc(F)c1 [Compound No. 251] please.
Reply: 99

Task item: Please answer likewise for COc1ccc(C(O)Cn2c3c(c4cc(Cl)ccc42)CCN(C)CC3)cc1OC (stereo not drawn) [Compound No. 77]
Reply: 72

Task item: Same for Cc1ccc2c(c1)c1c(n2CCc2ccc(C(=O)O)nc2)CCN(C)CC1 [Compound No. 11]
Reply: 34

* * *

# measured-on: human recombinant adrenergic α1D receptor (Homo sapiens, UniProt P25100)
# Construct: expressed in transfected cells; host or cells: HEK-293 cells
# Sequence (P25100 1-572): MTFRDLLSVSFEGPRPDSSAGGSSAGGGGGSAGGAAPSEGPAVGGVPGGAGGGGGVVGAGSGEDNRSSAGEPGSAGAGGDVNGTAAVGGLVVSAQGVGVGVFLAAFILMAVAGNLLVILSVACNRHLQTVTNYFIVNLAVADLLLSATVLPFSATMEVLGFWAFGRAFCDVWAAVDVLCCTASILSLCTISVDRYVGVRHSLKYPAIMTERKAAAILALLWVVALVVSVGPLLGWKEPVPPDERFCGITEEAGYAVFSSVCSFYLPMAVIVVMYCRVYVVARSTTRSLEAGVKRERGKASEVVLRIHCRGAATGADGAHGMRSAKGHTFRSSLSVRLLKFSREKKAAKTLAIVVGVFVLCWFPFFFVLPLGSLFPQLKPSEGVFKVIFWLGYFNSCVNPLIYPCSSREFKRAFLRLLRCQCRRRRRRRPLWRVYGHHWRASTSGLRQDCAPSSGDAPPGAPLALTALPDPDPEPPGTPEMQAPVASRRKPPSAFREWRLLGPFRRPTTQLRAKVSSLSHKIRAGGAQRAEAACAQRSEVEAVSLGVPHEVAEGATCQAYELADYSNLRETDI
# protocol-summary: Adrenergic alpha1D radioligand binding ([3H]Prozosin)
# assay-conditions: compound at 1 μM; read-out: Adrenergic (1 μM) α1D, percent inhibition of specific binding
Kindly return Met if reported inhibition at 1 µM is no lower than 90%; return Not met if it is lower.

Task item: Is the recorded value of inhibition at 1 µM equal to or greater than 90% for this compound? COc1ccc(C(O)Cn2c3c(c4cc(C)ccc42)CCN(C)CC3)cc1F (centres unmarked)
Reply: Met

Task item: What do you get for Cc1ccc(C(O)Cn2c3c(c4cc(Cl)ccc42)CCN(C)CC3)cn1 (centres unmarked) ?
Reply: Not met

Task item: Also need "Cc1ccc2c(c1)c1c(n2/C=C/c2ccccc2F)CCN(C)CC1" , thanks.
Reply: Met

Task item: Another compound to check: "Cc1ccc2c(c1)c1c(n2/C=C/c2ccc(Cl)cc2)CCN(C)CC1"
Reply: Met

Task item: Now the same for "Cc1ccc2c(c1)c1c(n2CCc2ccccc2Cl)CCN(C)CC1"
Reply: Not met

Task item: Further, for COc1ccc(C(O)Cn2c3c(c4cc(Cl)ccc42)CCN(C)CC3)cc1OC (centres unmarked) ?
Reply: Not met

Task item: Entry to check: "CC1CCN(C(=O)Cn2c3c(c4cc(Cl)ccc42)CCN(C)CC3)CC1"
Reply: Not met

src = patent US9481676B2
